These data points were gathered from PubChem BioAssay AID1159580.

Assay: chemical genetic growth profiling, strain panel (AID 1159580);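 note: tested at 20 µM; growth read once vehicle control cultures reached saturation at 30 °C; lower values mean less growth of the strain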
Conditions: S. cerevisiae deletion strains, growth OD, locus YNL250W, strain rad50, active compounds read low
In all, about 5,500 compounds went through this assay and about 2,000 (36%) were called active. Inconclusive results (about 18%) are left out. The list shows a part of the results.
Binary label based on normalized growth with cut-off 1: below gives Satisfied, not below gives Not satisfied.

Sample answers from the record:
INSERT INTO results (compound, classname) VALUES
  ('COc1cc(-c2coc3cc(OC)c(OC)c(OC)c3c2=O)cc(OC)c1OC', 'Satisfied'),
  ('CO[C@@]1(NC(=O)CSCC#N)C(=O)N2C(C(=O)O)=C(CSc3nnnn3C)CSC21 (stereo not given in full)', 'Not satisfied'),
  ('CC(C)NC[C@H](O)COc1cccc2ccccc12', 'Not satisfied'),
  ('COc1cc2occ(-c3ccccc3)c(=O)c2c(OC)c1C', 'Satisfied');

Turning now to a further record.
Q: Record `COc1cc(-c2coc3cc(OCc4ccccc4)c(OC)c(O)c3c2=O)cc(O)c1OC` : is its normalized growth strictly below 1?
Ans: Satisfied
